Value source: PubChem BioAssay (NCI)

- METHOD_SUMMARY: NCI Yeast Anticancer Drug Screen. Data for the bub3 strain (AID 167)
- TEST_CONDITIONS: S. cerevisiae bub3 mutant strain, at 50.0 µM, stronger effect = higher value
Compounds without any hit were thinned out: in the full panel of roughly 79,000, 15% have a hit.
// reported growth inhibition per item
ASSAY_ENDPOINT: growth inhibition (%)

In [3]: df
Out[3]:
                                   compound     assay_endpoint  units_text  value_reported
0  Nc1ccc(CCC(=O)Nc2ccc(S(=O)(=O)F)cc2)c(Cl)c1  growth inhibition           %              92
1  CC1CN=C(Nc2ccc(F)cc2F)S1 (configuration not stated)  growth inhibition           %            12.5
2                          CNc1ccccc1C(=O)O  growth inhibition           %           -12.2
3  CSCCC(NC(=O)C(Cc1ccccc1)NC(=O)CNC(=O)CNC(=O)C(N)Cc1ccc(O)cc1)C(=O)O (configuration not stated)  growth inhibition           %            14.4
4                            CCC(CC)C(=O)Cl  growth inhibition           %           -1.35
5           O=c1[nH]c2ccccc2c(=O)n1-c1ccco1  growth inhibition           %           -25.1
6                          Cn1nnc(C(N)=O)n1  growth inhibition           %            -4.2

* * *

- METHOD_SUMMARY: NCI Yeast Anticancer Drug Screen. Data for the bub3 strain (AID 167)
- TEST_CONDITIONS: S. cerevisiae bub3 mutant strain, at 50.0 µM, stronger effect = higher value
The panel holds about 79,000 compounds, 15% with a hit somewhere; the sample as a whole holds those more often.
ASSAY_ENDPOINT: growth inhibition (%)

In [3]: df
Out[3]:
                                   compound     assay_endpoint  units_text  value_reported
0                               Nc1ncn[nH]1  growth inhibition           %            18.6
1  COc1ccc(O)c2c(=O)c3c(OC)cc4c(c3oc12)[C@@H]1C=CO[C@@H]1O4  growth inhibition           %           -9.65
2  COc1cc(N=Nc2ccc([N+](=O)[O-])cc2)c([OH+]C)cc1[N+]#N.COc1cc(N=Nc2ccc([N+](=O)[O-])cc2)c([OH+]C)cc1[N+]#N.[Cl][Zn][Cl]  growth inhibition           %            17.9
3  CC1(C)N=C(N)N=C(N)N1c1ccc(CCc2ccc(S(=O)(=O)F)cc2Cl)c(Cl)c1  growth inhibition           %            99.2
4        CCOP(=O)(OCC)O/N=C(/c1ccccc1)C(C)C  growth inhibition           %            -0.1
5          CC(=O)CC(C)=O.CC(=O)CC(C)=O.[Co]  growth inhibition           %           -52.3
6  NC(=O)C(N)C(F)c1ccccc1 (stereo not given)  growth inhibition           %           -11.7
7  C1CN([PH+](N2CC2)N2CC2)CCO1.C1CN([PH+](N2CC2)N2CC2)CCO1.[Cl][Pt][Cl]  growth inhibition           %           -3.35
8        COc1ccc([Se]c2ccc(OC)cc2OC)c(OC)c1  growth inhibition           %             8.5
9         ClCCN(CCCl)c1ccc(CCCCN2CCCCC2)cc1  growth inhibition           %            19.2
